# Test system: rat DGAT2 mRNA
# Measurement protocol: Dose-dependent inhibition of DGAT2 in A10 cells, 0.62-150 nM (Example 22, Table 83)
# Format: cell-based
# Assay setup: 1.85 nM
Strand notation (5' to 3'): a small letter for the sugar, then the base; units joined by * are phosphorothioate-linked, units joined directly phosphodiester-linked; [ ] holds rarer units or linkages, { } end groups; capitals alone tell only the bases. e = 2'-O-(2-methoxyethyl) (MOE); [5mC] = 5-methylcytosine; d = 2'-deoxy (DNA)
Value kind: percent inhibition of rat DGAT2

What does the data say about its percent inhibition of rat DGAT2? Entry: 372586 (antisense eG*eT*dT*d[5mC]*d[5mC]*dT*dG*dG*dT*dG*dG*dT*e[5mC]*eA) [compound 372586]
0

Fill in: percent inhibition of rat DGAT2 of 372501 (antisense eT*eT*eG*dT*dG*dT*dG*dT*d[5mC]*dT*dT*d[5mC]*dA*e[5mC]*e[5mC]*eA) [compound 372501] is ___
5

Report percent inhibition of rat DGAT2 for 372530 (antisense eT*e[5mC]*eG*dG*d[5mC]*d[5mC]*d[5mC]*d[5mC]*dA*dG*dG*dA*dG*e[5mC]*e[5mC]*e[5mC]) [compound 372530] please.
2

So what does the record say about percent inhibition of rat DGAT2 for 372624 (antisense eT*eG*dG*dT*d[5mC]*dT*dT*dG*dT*dG*dA*dT*eT*eG) [compound 372624] ?
0

Which percent inhibition of rat DGAT2 is reported for this substance? 372503 (antisense eG*e[5mC]*eA*dG*dG*dT*dT*dG*dT*dG*dT*dG*dT*e[5mC]*eT*eT) [compound 372503]
10

Reference source for all entries: patent US8188059B2
